test system: SNG-M (Endometrial Carcinoma); assay: combination Emax (second highest fraction inhibited in the dose matrix, 72 h); higher = more inhibition; extreme values may be limits of the assay
combination Emax listing for selected compounds.
Reply briefly: the number, and no unit.

Answered examples (2):
compound: CS(=O)(=O)CCNCc1ccc(-c2ccc3ncnc(Nc4ccc(OCc5cccc(F)c5)c(Cl)c4)c3c2)o1 [Lapatinib] + Cn1cnc2c(F)c(Nc3ccc(Br)cc3Cl)c(C(=O)NOCCO)cc21 [Selumetinib] (first compound max 10 µM, 7x7, partner max 10 µM)
readout number: 0.43

compound: CC1(C)CCC(CN2CCN(c3ccc(C(=O)NS(=O)(=O)c4ccc(NCC5CCOCC5)c([N+](=O)[O-])c4)c(Oc4cnc5[nH]ccc5c4)c3)CC2)=C(c2ccc(Cl)cc2)C1 [Venetoclax] + CCN(CCO)CCCOc1ccc2c(Nc3cc(CC(=O)Nc4cccc(F)c4)[nH]n3)ncnc2c1 [AZD2811] (first compound max 1 µM, 7x7, partner max 1 µM)
readout number: 0.278

--- query ---
## Input Param readout = combination Emax; param system = SNG-M (Endometrial Carcinoma); param query = N#Cc1cnc(Nc2cc(NC[C@H]3CNCCO3)c(C(F)(F)F)cn2)cn1 [SRA737] + C=CCn1c(=O)c2cnc(Nc3ccc(N4CCN(C)CC4)cc3)nc2n1-c1cccc(C(C)(C)O)n1 [AZD1775] (first compound max 10 µM, partner max 1 µM) ; response: value
## Output 0.883
